targetDesc: T1, Pin3, Q06449
T1 sequence (Q06449 53-122, looked up): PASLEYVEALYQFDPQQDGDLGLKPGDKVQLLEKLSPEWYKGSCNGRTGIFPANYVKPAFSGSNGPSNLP
methodSummary: SPOT array
conditions: median of control spots 2171
Hi! Just check whether SPOT intensity is below 6. Below gives yes, equal or above gives no.

- binder: "SKSRLLIELPEGFFT"
  labelClass: "yes"
- binder: "NSMRPPLLIPAATTK"
  labelClass: "no"
- binder: "QGYPRQPQRPQRYHP"
  labelClass: "yes"
- binder: "NAGIRPKFILALNDE"
  labelClass: "yes"
- binder: "RKNRAPPQRPRFNRE"
  labelClass: "no"

Request: is_below(SPOT intensity, 6) for PLRRTVMSLPGNHDI ?
Result: no

Request: Is SPOT intensity strictly under 6 for the entry PIVPSSPAPPLPLSG ?
Result: yes

Request: Answer whether the binder QPQRTAPKPPISAPR has SPOT intensity strictly less than 6
Result: no
